- systemUnderTest: Cholinesterase (Homo sapiens)
- Sequence (P06276 whole entry): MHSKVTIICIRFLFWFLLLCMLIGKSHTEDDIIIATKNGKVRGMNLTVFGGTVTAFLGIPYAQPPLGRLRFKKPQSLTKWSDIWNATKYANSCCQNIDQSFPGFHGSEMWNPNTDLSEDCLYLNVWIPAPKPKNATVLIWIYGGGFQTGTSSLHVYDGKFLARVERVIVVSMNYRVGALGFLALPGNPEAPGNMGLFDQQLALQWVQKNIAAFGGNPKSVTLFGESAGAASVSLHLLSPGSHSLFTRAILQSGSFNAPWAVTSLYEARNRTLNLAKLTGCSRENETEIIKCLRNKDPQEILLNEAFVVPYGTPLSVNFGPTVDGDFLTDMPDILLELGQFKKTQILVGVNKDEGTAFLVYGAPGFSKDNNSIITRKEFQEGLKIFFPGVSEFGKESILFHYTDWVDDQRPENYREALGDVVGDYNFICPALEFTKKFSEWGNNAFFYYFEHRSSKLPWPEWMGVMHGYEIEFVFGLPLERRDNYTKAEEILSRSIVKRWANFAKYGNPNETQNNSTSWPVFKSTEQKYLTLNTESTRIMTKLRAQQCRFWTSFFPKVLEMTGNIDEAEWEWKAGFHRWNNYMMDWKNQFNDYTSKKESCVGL
- test: Inhibition of human BChE by Ellman's method
Give measured pIC50 for each item. Keep answers brief.
One number for each entry, as −log10 of the molar value.

# compound, pIC50
data = [
    ("Oc1ccc(CNC2CCN(Cc3ccccc3)C2)c(O)c1 (stereo unspecified)", 5.57),
    ("Clc1ccc(/C=N\\C2CCN(Cc3ccccc3)C2)cc1 (stereo unspecified)", 5.93),
    ("Oc1ccccc1CNC1CCN(Cc2ccccc2)C1 (stereo unspecified)", 5.56),
    ("c1ccc(CNC2CCN(Cc3ccccc3)C2)cc1 (stereo unspecified)", 5.80),
]

I would be grateful if you could provide pIC50 for each of the following entries.
1. Cc1cccc(/C=N\C2CCN(Cc3ccccc3)C2)c1 (stereo unspecified)
2. Oc1ccc(CNC2CCN(Cc3ccccc3)C2)cc1 (stereo unspecified)

Response:
5.24
5.71

----------
- test: Cmax in Wistar rat at 10 mg/kg, po measured up to 48 hrs
- Format: ADME, organism-based
- Parameters: route oral, dose 10 mg/kg, time <=48
- testConditions: in vivo
metricName: Cmax
In your response, put the unit directly after the numeric value.

Prompt: Record request: Cmax value, item FC(F)(F)Oc1ccc(CNC2CCN(Cc3ccccc3)C2)cc1 (stereo unspecified)
Response: 272 ng/mL

----------
- systemUnderTest: Acetylcholinesterase (Homo sapiens, UniProt P22303)
- Sequence (P22303 whole entry): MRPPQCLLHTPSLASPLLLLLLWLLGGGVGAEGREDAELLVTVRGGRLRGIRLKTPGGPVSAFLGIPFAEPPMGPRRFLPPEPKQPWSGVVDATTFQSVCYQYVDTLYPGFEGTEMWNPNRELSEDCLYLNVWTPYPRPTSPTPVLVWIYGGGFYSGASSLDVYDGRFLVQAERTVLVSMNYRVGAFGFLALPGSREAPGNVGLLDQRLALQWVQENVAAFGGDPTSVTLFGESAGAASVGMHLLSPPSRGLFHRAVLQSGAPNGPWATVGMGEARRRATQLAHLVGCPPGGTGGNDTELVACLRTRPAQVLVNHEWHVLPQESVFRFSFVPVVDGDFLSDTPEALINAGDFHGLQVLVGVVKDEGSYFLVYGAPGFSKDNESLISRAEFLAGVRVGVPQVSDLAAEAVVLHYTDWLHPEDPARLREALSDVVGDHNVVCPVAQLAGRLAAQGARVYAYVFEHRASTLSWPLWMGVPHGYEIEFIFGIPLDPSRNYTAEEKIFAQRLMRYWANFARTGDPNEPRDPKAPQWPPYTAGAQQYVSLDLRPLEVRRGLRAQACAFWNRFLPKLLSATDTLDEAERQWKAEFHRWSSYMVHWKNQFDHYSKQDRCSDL
IC50 vs 1 µM: less than gives True; not less than gives False.

Known results for compounds:
# compound, systemUnderTest, answerLabel
measured = [
    ("Oc1ccc(CNC2CCN(Cc3ccccc3)C2)c(O)c1 (stereo not drawn)", "Acetylcholinesterase (Homo sapiens, UniProt P22303)", "False"),
    ("Oc1ccc(CNC2CCN(Cc3ccccc3)C2)cc1 (stereo not drawn)", "Acetylcholinesterase (Homo sapiens, UniProt P22303)", "False"),
    ("O=[N+]([O-])c1ccc(/C=N\\C2CCN(Cc3ccccc3)C2)cc1 (stereo not drawn)", "Acetylcholinesterase (Homo sapiens, UniProt P22303)", "False"),
    ("Brc1ccc(/C=N\\C2CCN(Cc3ccccc3)C2)cc1 (stereo not drawn)", "Acetylcholinesterase (Homo sapiens, UniProt P22303)", "False"),
    ("COc1cccc(CNC2CCN(Cc3ccccc3)C2)c1OC (stereo not drawn)", "Acetylcholinesterase (Homo sapiens, UniProt P22303)", "False"),
]

--- query ---
Prompt: Threshold test, IC50 < 1 µM: Cc1cccc(/C=N\C2CCN(Cc3ccccc3)C2)c1 (stereo not drawn)
Response: False

----------
- test: Half life in Wistar rat at 10 mg/kg, po measured up to 48 hrs
- Type: ADME, organism-based
- testConditions: in vivo
metricName: half-life

Prompt: Record request: half-life value, item FC(F)(F)Oc1ccc(CNC2CCN(Cc3ccccc3)C2)cc1 (stereo unspecified)
Response: 15.7 h

----------
// endpoint pIC50 / system UniProt:P22303
One number for each entry, as −log10 of the molar value.

# compound, pIC50
measured = [
    ("COc1cc(/C=N\\C2CCN(Cc3ccccc3)C2)cc(OC)c1OC (configuration not stated)", 5.11),
    ("Clc1ccc(/C=N\\C2CCN(Cc3ccccc3)C2)cc1 (configuration not stated)", 5.91),
    ("O=[N+]([O-])c1ccc(CNC2CCN(Cc3ccccc3)C2)cc1 (configuration not stated)", 6.13),
    ("Fc1ccc(/C=N\\C2CCN(Cc3ccccc3)C2)cc1 (configuration not stated)", 5.97),
    ("FC(F)(F)c1ccc(CNC2CCN(Cc3ccccc3)C2)cc1 (configuration not stated)", 6.89),
    ("Fc1ccc(CNC2CCN(Cc3ccccc3)C2)c(F)c1 (configuration not stated)", 7.16),
    ("Clc1ccc(CNC2CCN(Cc3ccccc3)C2)cc1 (configuration not stated)", 6.75),
]

We next turn to a different compound, shown below.
Prompt: Record request: pIC50 value, item Fc1ccc(/C=N\C2CCN(Cc3ccccc3)C2)c(F)c1 (configuration not stated)
Response: 6.02
